Listed next: entries and their corresponding melting point.

Illustrative cases are given below, each with its answer.
[[record]]
compound = "Cc1nc(C)c(Cl)c(NCc2nccc(SCCCCN3CCNCC3)c2C)n1 [Compound 17]"
obs_value = "143 to 145 °C"

[[record]]
compound = "Cc1nc(C)c(Cl)c(NCc2nccc(SCCOCCSCc3cccnc3)c2C)n1 [Compound 52]"
obs_value = "90 to 92 °C"

[[record]]
compound = "Cc1c(OCCSCc2ccco2)ccnc1CNc1ncncc1Cl [Compound 58]"
obs_value = "129 to 130 °C"

[[record]]
compound = "Cc1nc(C)c(Cl)c(NCc2nccc(SCCCSCC3CN(C)C(=O)O3)c2C)n1 (stereo not drawn) [Compound 5]"
obs_value = "121 °C"

[[record]]
compound = "Cc1nc(C)c(Cl)c(NCc2nccc(OCCCCSCCO)c2C)n1 [Compound 36]"
obs_value = "116 to 118 °C"


Consider Cc1c(SCCCSCCn2c([N+](=O)[O-])cnc2C)ccnc1CNc1ncncc1Cl [Compound 9] . Its measured melting point is 119 to 121 °C

Recorded result, Cc1nc(C)c(Cl)c(NCc2nccc(OCCCCN3CCN(Cc4ccncc4)CC3)c2C)n1 [Compound 11] , melting point: 157 to 158 °C

melting point reading for Cc1nc(C)c(Cl)c(NCc2nccc(SCCOCCSCc3ccccn3)c2C)n1 [Compound 53] : 70 to 72 °C

Quick note, melting point for Cc1nc(C)c(Cl)c(NCc2nccc(SCCOCCn3c([N+](=O)[O-])cnc3C)c2C)n1 [Compound 57] landed at 160 to 163 °C

###

readout.name: melting point

[[record]]
molecule = "Cc1nc(C)c(Cl)c(NCc2nccc(OCCSCc3ccncc3)c2C)n1 [Compound 30]"
obs_value = "140 to 142 °C"

[[record]]
molecule = "Cc1nc(C)c(Cl)c(NCc2nccc(OCCSCCn3c([N+](=O)[O-])cnc3C)c2C)n1 [Compound 32]"
obs_value = "139 to 144 °C"


Value of melting point reported for the molecule Cc1nc(C)c(Cl)c(NCc2nccc(SCCCSCCn3c([N+](=O)[O-])cnc3C)c2C)n1 [Compound 27] is 145 to 147 °C

###

readout.name: melting point

Reference set (3 entries):
[[record]]
compound = "Cc1nc(C)c(Cl)c(NCc2nccc(SCCCSCCO)c2C)n1"
readout_name = "melting point"
obs_value = "134 to 137 °C"

[[record]]
compound = "Cc1nc(C)c(Cl)c(NCc2nccc(SCC3CCCN(C)C3)c2C)n1 (centres unmarked)"
readout_name = "melting point"
obs_value = "148 to 149 °C"

[[record]]
compound = "CN(CCO)c1ccnc(CNc2ncncc2Cl)c1Cl"
readout_name = "melting point"
obs_value = "158 to 161 °C"


// melting point value for Cc1nc(C)c(Cl)c(NCc2nccc(SCCCCSCCO)c2C)n1 : 142 to 143 °C

In plain terms, Cc1nc(C)c(Cl)c(NCc2nccc(OCCCCN3CCNCC3)c2C)n1 has a documented melting point of 140 to 144 °C

###

In this section we review reported melting point values for a set of compounds.

Memo: Cc1nc(C)c(Cl)c(NCc2nccc(SCCOCCOCC(F)(F)F)c2C)n1.Cl [Compound 4] , reported melting point: 235 to 241 °C (dec.)

# melting point of Cc1nc(C)c(Cl)c(NCc2nccc(SCCCSCc3cccnc3)c2C)n1 [Compound 47] = 104 to 105 °C

Just so you know, measured melting point for Cc1nc(C)c(Cl)c(NCc2nccc(OCCCCSCc3ccccn3)c2C)n1 [Compound 51] came out at 113 to 114 °C

Entry Cc1nc(C)c(Cl)c(NCc2nccc(SCCCSCC3CCCN(C)C3)c2C)n1 (centres unmarked) [Compound 22] , melting point reported as 92 to 94 °C

// melting point value for Cc1nc(C)c(Cl)c(NCc2nccc(SCCCN3CCN(Cc4ccncc4)CC3)c2C)n1.Cl [Compound 23] : 166 to 168 °C

Given item Cc1nc(C)c(Cl)c(NCc2nccc(OCCCSCCn3c([N+](=O)[O-])cnc3C)c2C)n1 [Compound 33] , the value recorded as its melting point is 169 to 171 °C

Per the record, Cc1nc(C)c(Cl)c(NCc2nccc(SCCCSc3ncc(-c4ccccc4)[nH]3)c2C)n1.Cl has melting point of 188 to 190 °C

The measured melting point associated with Cc1c(SCCCN2CCN(Cc3ccncc3)CC2)ccnc1CNc1ncncc1Cl [Compound 45] reads 149 to 151 °C

###

Documented melting point across a set of compounds

Worked examples follow.
[[record]]
smiles_entry = "Cc1nc(C)c(Cl)c(NCc2nccc(SCCCSCCSc3ncccn3)c2C)n1"
obs_value = "112 to 115 °C"

[[record]]
smiles_entry = "Cc1nc(C)c(Cl)c(NCc2nccc(SCCCSc3sccc3[N+](=O)[O-])c2C)n1"
obs_value = "174 to 180 °C"

[[record]]
smiles_entry = "Cc1nc(C)c(Cl)c(NCc2nccc(SCCCSCc3ccccn3)c2C)n1"
obs_value = "100 to 101 °C"


response.value for Cc1nc(C)c(Cl)c(NCc2nccc(SCCCSc3ncccn3)c2C)n1 (field: melting point) = 158 to 159 °C

Record Cc1nc(C)c(Cl)c(NCc2nccc(SCCCSCc3ccncc3)c2C)n1 . Reported melting point: 124 to 125 °C

Noted for Cc1c(SCCCSCc2ccncc2)ccnc1CNc1ncncc1Cl : its melting point reads 148 to 149 °C

The measured melting point associated with Cc1nc(C)c(Cl)c(NCc2nccc(SCCOCCOCCSCc3ccncc3)c2C)n1 reads 84 to 86 °C

Kindly note the recorded melting point for Cc1nc(C)c(Cl)c(NCc2nccc(N(C)CCN3CCc4ccccc4C3)c2Cl)n1 , which is 81 to 93 °C

Entry Cc1nc(C)c(Cl)c(NCc2nccc(SCCCCSCc3ccncc3)c2C)n1 — recorded melting point = 104 to 106 °C

###

readout.name: melting point

Would you please look over these solved cases?
[[record]]
molecule = "Cc1nc(C)c(Cl)c(NCc2nccc(OCCCCSCCn3c([N+](=O)[O-])cnc3C)c2C)n1 [Compound 16]"
readout_name = "melting point"
obs_value = "114 to 117 °C"

[[record]]
molecule = "Cc1nc(C)c(Cl)c(NCc2nccc(SCCOCCSCc3ccncc3)c2C)n1 [Compound 42]"
readout_name = "melting point"
obs_value = "68 to 71 °C"


// next entry
Measured melting point of Cc1c(OCCSCCn2c([N+](=O)[O-])cnc2C)ccnc1CNc1ncncc1Cl [Compound 49] : 145 to 147 °C

###

readout.name: melting point

[[record]]
compound = "Cc1nc(C)c(Cl)c(NCc2nccc(SCc3ccncc3)c2C)n1"
obs_value = "188 to 191.9 °C"

[[record]]
compound = "Cc1nc(C)c(Cl)c(NCc2nccc(N(C)CCCSCCn3c([N+](=O)[O-])cnc3C)c2Cl)n1"
obs_value = "123 to 126 °C"

[[record]]
compound = "Cc1nc(C)c(Cl)c(NCc2nccc(SCCCN3CCN(CC4CN(Cc5ccncc5)C(=O)O4)CC3)c2C)n1 (stereo not shown)"
obs_value = "123 to 126 °C"


Please find the next compound below.
For this compound ( Cc1c(OCCCSCCn2c([N+](=O)[O-])cnc2C)ccnc1CNc1ncncc1Cl ), measured melting point is 143 to 146 °C
